# assay-explanation: Protein binding in human plasma assessed as unbound fraction at 1 uM by LCMS/MS analysis
# Format: ADME, cell-free
measurement-name: fraction unbound at 1 µM

1: Cc1n[nH]c(C)c1-c1ccc(NC(=O)[C@@H](NC(=O)c2ccnn2C(C)C)C(C2CC2)C2CC2)cc1
2: Cc1n[nH]c(C)c1-c1ccc(NC(=O)[C@@H](NC(=O)c2ccnn2C)C(c2ccccc2)c2ccccc2)cc1
Incoming: Between 1 and 2 , which one shows the larger fraction unbound at 1 µM value? Which one? Tell me its label.
Outgoing: 1

* * *

solubility at 24 h overview
# assay-explanation: Solubility in phosphate buffer at pH 7.4 measured after 24 hrs by HPLC-UV analysis
# Type: physicochemical

1. Cc1n[nH]c(C)c1-c1ccc(NC(=O)[C@@H](NC(=O)c2ccnn2C)C(c2ccccc2)c2ccccc2)cc1; < 1 µg/mL

Next molecule, solubility at 24 h to be filled in.
Incoming: Specify measured solubility at 24 h for Cc1n[nH]c(C)c1-c1ccc(NC(=O)[C@@H](NC(=O)c2ccnn2C(C)C)C(C2CC2)C2CC2)cc1 .
Outgoing: < 1 µg/mL

* * *

# assay-explanation: Volume of distribution at steady state in Sprague-Dawley rat at 0.1 mg/kg, iv measured upto 24 hrs by LCMS/MS analysis
# Format: ADME, organism-based
# condition: in vivo, read-out: Vdss
measurement-name: Vd (L/kg)

1) Cc1n[nH]c(C)c1-c1ccc(NC(=O)[C@@H](NC(=O)c2ccnn2C)C(c2ccccc2)c2ccccc2)cc1; 2
2) Cc1n[nH]c(C)c1-c1ccc(NC(=O)[C@@H](NC(=O)c2ccnn2C(C)C)C(C2CC2)C2CC2)cc1; 2.6

* * *

# assay-explanation: Metabolic stability in human liver microsomes assessed as apparent clearance at 0.5 uM measured upto 40 mins in presence of NADPH by LCMS/MS analysis
# Assay type: ADME, Microsome
# condition: read-out: CLH
measurement-name: CLint scaled at 0.5 µM (mL/min/kg)

1. Cc1n[nH]c(C)c1-c1ccc(NC(=O)[C@@H](NC(=O)c2ccnn2C)C2CCCCCC2)cc1; 105

P: Cc1ncn(C)c1-c1ccc(NC(=O)[C@@H](NC(=O)c2ccnn2C)C(c2ccccc2)c2ccccc2)cc1
Q: CCn1nccc1C(=O)N[C@H](C(=O)Nc1ccc(-c2c(C)n[nH]c2C)cc1)C(C1CCC1)C1CCC1
Incoming: Look at P and Q . Which one has the lower recorded CLint scaled at 0.5 µM number? Which one? Tell me its label.
Outgoing: Q

P: Cc1n[nH]c(C)c1-c1ccc(NC(=O)[C@H](CC2CCCCC2)NC(=O)c2ccnn2C)cc1
Q: Cc1n[nH]c(C)c1-c1ccc(NC(=O)[C@@H](NC(=O)c2ccnn2C)C(C2CCC2)C2CCC2)cc1
Incoming: Look at P and Q . Which one has the lower recorded CLint scaled at 0.5 µM number? Which one? Tell me its label.
Outgoing: Q

I: Cn1cncc1-c1ccc(NC(=O)[C@@H](NC(=O)c2ccnn2C)C(c2ccccc2)c2ccccc2)cc1
II: CC(C)[C@H](NC(=O)COCCNC(=O)OC(C)(C)C)C(=O)N[C@@H](CC(=O)O)Cc1ccc(NC(=O)[C@H](Cc2ccccc2Cl)NC(=O)C(F)(F)c2ccccc2)cc1
Incoming: Look at I and II . Which one has the lower recorded CLint scaled at 0.5 µM number? Which one? Tell me its label.
Outgoing: I
(I: 21 mL/min/kg, II: 33 mL/min/kg)

* * *

CLint scaled at 0.5 µM overview
# assay-explanation: Metabolic stability in human liver microsomes assessed as apparent clearance at 0.5 uM measured upto 40 mins in presence of NADPH by LCMS/MS analysis
# Assay type: ADME, Microsome
# condition: read-out: CLH

Known results for molecules:
1. CN(C)C(=O)c1ccc(NC(=O)[C@@H](NC(=O)c2ccnn2C)C(c2ccccc2)c2ccccc2)cc1; < 8 mL/min/kg
2. Cn1nccc1C(=O)N[C@H](C(=O)Nc1ccc(-c2cn[nH]c2)cc1)C(c1ccccc1)c1ccccc1; < 8 mL/min/kg
3. Cc1n[nH]c(C)c1-c1ccc(NC(=O)[C@@H](NC(=O)c2ccnn2C(C)C)C(C2CC2)C2CC2)cc1; < 8 mL/min/kg
4. Cc1n[nH]c(C)c1-c1ccc(NC(=O)[C@H](Cc2ccccc2)NC(=O)c2ccnn2C)cc1; 12 mL/min/kg

Incoming: Specify measured CLint scaled at 0.5 µM for Cn1cnnc1-c1ccc(NC(=O)[C@@H](NC(=O)c2ccnn2C)C(c2ccccc2)c2ccccc2)cc1 .
Outgoing: < 8 mL/min/kg

Incoming: Specify measured CLint scaled at 0.5 µM for O=C1CNC(=O)[C@@H](Cc2ccc(NC(=O)[C@H](Cc3ccccc3Cl)NC(=O)Cc3ccccc3)cc2)NC(=O)CC2(CCCC2)CC(=O)NCCCCCN1 .
Outgoing: > 200 mL/min/kg

Incoming: Specify measured CLint scaled at 0.5 µM for Cc1n[nH]c(C)c1-c1ccc(NC(=O)[C@@H](NC(=O)c2ccnn2C)C(C2CC2)C2CC2)cc1 .
Outgoing: < 8 mL/min/kg

Incoming: Specify measured CLint scaled at 0.5 µM for Cc1n[nH]c(C)c1-c1ccc(NC(=O)[C@@H](NC(=O)c2ccnn2C)c2ccccc2)cc1 .
Outgoing: < 8 mL/min/kg

Incoming: Specify measured CLint scaled at 0.5 µM for Cc1[nH]ncc1-c1ccc(NC(=O)[C@@H](NC(=O)c2ccnn2C)C(c2ccccc2)c2ccccc2)cc1 .
Outgoing: < 8 mL/min/kg
